Entries annotated with measured AmpC inhibition
# Tested on: AmpC beta-lactamase (E. coli)
# assay.overview: AmpC inhibition relative to DMSO; higher = more inhibition
# particulars: 11 µM; detergent: no detergent
Entry rule: numbers only, all in %.

The cases that follow already have their AmpC inhibition on record.
COc1ccc(/C(Cl)=C(/C=O)c2ccc(OC)cc2)cc1 | 3.21
Cl.Cl.O=C(O)Cn1nnc(-c2ccc(CN(CCCCOc3ccc(CN4CCCC4)cc3)CCc3ccccc3)cc2)n1 | -17.6
COc1cc(/C=C/C(=O)CC(=O)/C=C/c2ccc(O)c(OC)c2)ccc1O | 39.2
CNC(=O)Nc1ccc2c(c1)CC[C@@]21OC(=O)N(CC(=O)N(Cc2ccc(F)cc2)[C@@H](C)C(F)(F)F)C1=O | 5.86

Now for the molecule whose AmpC inhibition we want.
Quick check: AmpC inhibition on AmpC beta-lactamase (E. coli), item "O=C(NNS(=O)(=O)c1ccccc1)c1cc(-c2ccnnc2)ccc1F" ?
16.9
